test: In Vitro Phospholipidosis Assay (Assay 3), Nile red staining; type: cell-based, human; settings: human, first effect concentration, U937 cells, read-out: Phospholipidosis FEC IC50 μM (assay 3)
Reported IC50 at 48 h is given for each of the following compounds.

COMPOUND: C[C@@H]1C[C@@]2(Cc3ccc(C#N)cc3[C@]23N=C(N)N(CC2CC2)C3=O)C[C@H](C)[C@H]1O
IC50 at 48 h: > 100 µM

COMPOUND: C[C@H]1C[C@@]2(CC[C@@H]1O)Cc1ccc(-c3cccnc3)cc1[C@]21N=C(N)N(Cc2ncccn2)C1=O
IC50 at 48 h: 100 µM

COMPOUND: CC[C@@H]1C[C@@]2(Cc3ccc(C#N)cc3[C@]23N=C(N)N(C[C@H]2COCCO2)C3=O)C[C@H](C)[C@H]1O
IC50 at 48 h: 800 µM

Query :: Would you mind telling me what IC50 at 48 h value was observed for COCCCOc1ccc2c(c1)C1(N=C(N)N(CC(F)F)C1=O)[C@]1(CC[C@H](OC)CC1)C2 (stereo partly shown) [reference compound] ?
Result :: 50 µM

Query :: Reported IC50 at 48 h for `C[C@@H]1C[C@@]2(Cc3ccc(C#N)cc3[C@]23N=C(N)N(CC(C)(C)F)C3=O)C[C@H](C)[C@H]1O` : what is it?
Result :: 400 µM

Query :: Quick check: IC50 at 48 h of `CC[C@@H]1C[C@]2(CC[C@H]1O)Cc1ccc(C#N)cc1[C@]21N=C(N)N(CC(C)(C)F)C1=O` ?
Result :: 400 µM

Query :: What value of measured IC50 at 48 h is listed for COC1CCC2(CC1)Cc1ccc(C#N)cc1[C@]21N=C(N)N(C)C1=O (stereo partly shown) [drawing 10, reference compound] ?
Result :: 400 µM
